B1: CPEB3 Ribozyme (parent)
chain: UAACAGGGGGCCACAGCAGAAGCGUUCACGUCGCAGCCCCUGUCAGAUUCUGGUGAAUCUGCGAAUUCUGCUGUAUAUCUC

Variants of: B1
TEST_NAME: self-cleavage, relative activity (ratio to wild type); higher = more cleavage; in vitro, sequencing
REPORTED_PROPERTY: self-cleavage
Could you keep your reply to the number by itself?

Observe how each entry below is paired with its result.
VARIANT_DESCRIPTION: U25C G63U
self-cleavage: 0.3
//
VARIANT_DESCRIPTION: U26G U80C
self-cleavage: 0.51
//
VARIANT_DESCRIPTION: A13U U58G
self-cleavage: 0.3

query: Report self-cleavage for U41C G70U
result: 0.5

query: Report self-cleavage for A15C A21G
result: 0.49

query: Report self-cleavage for G52U A65G
result: 0.51

query: Report self-cleavage for U26C U80A
result: 0.51
